attribute-measured: pKi
Just the number, please; pKi means minus log10 of the concentration in mol/L.

Report measured pKi on Voltage-gated inwardly rectifying potassium channel KCNH2 (Homo sapiens, UniProt Q12809); entry: O=[N+]([O-])c1ccc(NCCCCN2CCC(Nc3nc4ccccc4n3Cc3ccc(F)cc3)CC2)c2nonc12
Sequence (Q12809 whole entry): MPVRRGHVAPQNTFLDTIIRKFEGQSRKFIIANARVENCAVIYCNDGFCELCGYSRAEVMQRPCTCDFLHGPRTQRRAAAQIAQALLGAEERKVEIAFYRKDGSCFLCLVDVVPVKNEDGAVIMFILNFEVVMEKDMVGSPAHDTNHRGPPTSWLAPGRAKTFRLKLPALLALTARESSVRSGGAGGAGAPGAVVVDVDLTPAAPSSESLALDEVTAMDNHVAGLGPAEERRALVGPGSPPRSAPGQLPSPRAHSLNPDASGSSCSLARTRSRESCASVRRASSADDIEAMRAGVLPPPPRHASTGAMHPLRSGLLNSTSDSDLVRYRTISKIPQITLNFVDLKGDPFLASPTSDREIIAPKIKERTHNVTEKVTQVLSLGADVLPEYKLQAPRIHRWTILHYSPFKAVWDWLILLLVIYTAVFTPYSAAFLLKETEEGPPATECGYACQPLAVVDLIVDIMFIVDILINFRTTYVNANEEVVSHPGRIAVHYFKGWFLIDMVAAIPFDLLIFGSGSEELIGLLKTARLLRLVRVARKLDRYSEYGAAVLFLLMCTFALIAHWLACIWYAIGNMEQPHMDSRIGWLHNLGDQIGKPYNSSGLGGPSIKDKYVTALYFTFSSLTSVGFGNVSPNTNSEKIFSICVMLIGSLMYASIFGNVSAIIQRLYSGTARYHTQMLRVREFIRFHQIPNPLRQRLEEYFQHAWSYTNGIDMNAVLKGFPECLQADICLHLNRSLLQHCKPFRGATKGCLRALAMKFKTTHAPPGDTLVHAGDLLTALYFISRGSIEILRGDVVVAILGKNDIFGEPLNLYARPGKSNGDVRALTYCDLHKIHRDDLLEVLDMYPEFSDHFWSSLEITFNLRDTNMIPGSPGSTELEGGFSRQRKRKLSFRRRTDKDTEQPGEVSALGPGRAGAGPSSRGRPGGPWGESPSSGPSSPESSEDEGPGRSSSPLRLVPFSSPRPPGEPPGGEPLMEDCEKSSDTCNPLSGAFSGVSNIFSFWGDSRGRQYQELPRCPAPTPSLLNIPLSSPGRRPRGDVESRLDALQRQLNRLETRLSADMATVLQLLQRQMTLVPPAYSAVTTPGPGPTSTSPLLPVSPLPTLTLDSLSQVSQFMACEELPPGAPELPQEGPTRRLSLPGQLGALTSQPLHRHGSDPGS
7.92
